Form field: IC50 (one value per entry).
system: BV-2; assay: Antiinflammatory activity in mouse BV2 cells assessed as reduction in LPS-induced nitric oxide production by griess assay; type: functional, cell-based
Report as a plain number; the unit µM is understood.

CHEM SMILES	UNIT TEXT	IC50
CC[C@H](C)C(=O)O[C@@H](C[C@@]1(C)[C@H](C)C[C@H](O)[C@]2(C)[C@@H]1CCC[C@H]2C(=O)OC)C1=CC(=O)OC1	µM	45
C/C=C(\C)C(=O)O[C@@H](C[C@@]1(C)[C@H](C)C[C@H](O)[C@]2(C)[C@@H]1CCC[C@H]2C(=O)OC)C1=CC(=O)OC1	µM	25.8
CSC(=N)N	µM	2.4

What value of IC50 has been recorded for this entry: `C/C=C(\C)C(=O)OC[C@@]12[C@H](CCC[C@]1(O)CCl)[C@@](C)(CCC1=CC(=O)OC1)[C@H](C)C[C@@H]2O` 20.2
